Source listed as a melting point compilation (Tetko et al.; mined from patent text by program, amines drawn as free bases though some values may be those of a salt).

Attribute: melting point

Inquiry: Entry O=C(O)Cc1c(-c2cccs2)nn(-c2ccccc2)c1-c1cccs1 has what melting point?
Reply text: 216 to 218 °C

Inquiry: What about this molecule? O=C(Nc1ccccc1C(c1ccc(O)cc1)c1ccc(O)cc1)c1cccs1
Reply text: 240 to 243 °C

Inquiry: What about this molecule? O=C1CN(c2cccc(Cl)c2)C(=O)N1S(=O)(=O)c1ccc2ccccc2c1
Reply text: 194 to 198 °C

Next:
Inquiry: Entry CC(=O)OCCCCCn1ccc(=O)c(O)c1C has what melting point?
Reply text: 132 to 133 °C

Inquiry: What about this molecule? Nc1c(OCc2ccccc2)cc(Br)cc1[N+](=O)[O-]
Reply text: 90 °C

----------
Attribute: melting point

Some molecules with recorded melting point:
Inquiry: Entry O=C1CCC(N2C(=O)c3cccc(CNC(=O)c4cccc(Br)n4)c3C2=O)C(=O)N1 (stereo not given) has what melting point?
Reply text: 181 to 183 °C

Inquiry: What about this molecule? COC(=O)C1=C(O)c2sc(C(F)(F)F)cc2S(=O)(=O)N1C
Reply text: 178 to 180 °C

Inquiry: What about this molecule? CC(C)N(C(=O)n1oc(=O)[nH]c1=O)c1ccccc1
Reply text: 116 to 117 °C

Inquiry: What about this molecule? N#CCC1CCN(C(c2ccccc2)c2ccccc2)CC1
Reply text: 103 to 104 °C

Inquiry: What about this molecule? CCOC(=O)C1C=Nc2c(ccc3cc(C(=O)N(C)Cc4ccc(F)cc4)cnc23)C1=O (stereo not given)
Reply text: 206 to 207 °C

Inquiry: What about this molecule? N#Cc1c(Cl)csc1N
Reply text: 230 °C

Inquiry: What about this molecule? CCCCc1oc2ccccc2c1C(=O)c1ccc2c(Br)c(OCc3nnn[nH]3)ccc2c1
Reply text: 160 to 162 °C

Inquiry: What about this molecule? CNC(=O)c1cc(F)ccc1CNC(=O)c1nc2n(c(=O)c1OCc1ccccc1)CCOC2
Reply text: 189 to 190 °C

Next:
Inquiry: Entry O=C(O)C1C2C=CC(C2)C1NS(=O)(=O)c1ccc(OCc2ccccc2)cc1 (stereo not given) has what melting point?
Reply text: 201 to 203 °C

Inquiry: What about this molecule? CC(=O)NCC1CC1c1cccc2nc(C)nn12 (stereo not given)
Reply text: 124 to 126 °C

----------
measuredAttribute: melting point (°C)

Some compounds with recorded melting point:
Inquiry: Entry CCOc1cc(CCl)nc(C)n1 has what melting point?
Reply text: 29

Inquiry: What about this compound? O=[N+]([O-])c1ccc2oc(-c3ccccc3)cc2c1
Reply text: 159

[P] O=C(c1ccc2c(c1)CCO2)N1Cc2cccnc2Nc2ccccc21
[Q] CC12CCC(C(=O)O)=CC1=CCC1C2CCC2(C)C(C(=O)c3ccc(O)cc3)CCC12 (stereo not given)
Inquiry: From the items above, decide which of P and Q has the lower melting point reading. Write down the label attached to your selection.
Reply text: P

----------
Attribute: melting point

Some compounds with recorded melting point:
Inquiry: Entry CCCCCCCCNC(=O)[C@@H]1C[C@H]1c1ccc(NC(=O)/C=C\C(=O)O)cc1 (relative stereo) has what melting point?
Reply text: 178 to 180 °C

Inquiry: What about this compound? CCCc1nc(NC(=O)N(C)C)nc(N2CCOCC2)n1
Reply text: 110 to 111 °C

Inquiry: What about this compound? Cc1c(CNC(=O)NO)c2cc(OCc3ccc4ccccc4n3)ccc2n1Cc1ccc(Cl)cc1
Reply text: 184 to 186 °C

Next:
Inquiry: Entry CCCS(=O)(=O)c1c(C)nn(-c2c(Cl)cc(C(F)(F)F)cc2Cl)c1N has what melting point?
Reply text: 146 to 147 °C

Inquiry: What about this compound? CCCCOc1cc(/C=C/C(=O)O)n(Cc2ccc(C(F)(F)F)cc2)n1
Reply text: 153 to 155 °C

Inquiry: What about this compound? COC(=O)c1ccccc1N=CNc1nnn[nH]1
Reply text: 199 to 200 °C

Inquiry: What about this compound? NC(=O)c1ccc(Cn2ccc(OCc3ccc(F)cc3F)c(Cl)c2=O)cc1
Reply text: 235 to 238 °C

Inquiry: What about this compound? CC(C)(C)[Si](C)(C)OCC1(CO[Si](C)(C)C(C)(C)C)c2ccccc2-c2ccccc21
Reply text: 84 °C

Inquiry: What about this compound? COC(=O)Cc1cccc(OC)c1OCCCc1cn(-c2ccc([N+](=O)[O-])cn2)nc1C(C)C
Reply text: 108 to 109 °C

Inquiry: What about this compound? O=C(O)CCc1cnn(-c2ccccc2)c1-c1ccccc1
Reply text: 159 to 160 °C

----------
measuredAttribute: melting point

Some compounds with recorded melting point:
Inquiry: Entry Cc1ccc(S(=O)(=O)N2[C@@H](CCC#N)CC[C@H]2c2ccc(F)cc2)cc1 (racemic) has what melting point?
Reply text: 86 °C

Inquiry: What about this compound? O=C(c1ccccc1)C(O)Cc1cccc(O)c1 (stereo not given)
Reply text: 118 to 119 °C

Inquiry: What about this compound? NC(=S)CCc1ccc([N+](=O)[O-])cc1
Reply text: 157 to 158 °C

Inquiry: What about this compound? CC(C)(C)NC(=O)c1ccc(N2CCN(c3ccncc3)CC2)cc1
Reply text: 214 to 217 °C

Inquiry: What about this compound? CCn1cc2c(n1)c(=O)[nH]c1cc(OCc3ccccc3)ccc12
Reply text: 240 to 241 °C

Next:
Inquiry: Entry OCCC(c1ccccc1)C(O)(c1ccccc1)c1ccccc1 (stereo not given) has what melting point?
Reply text: 112 to 113 °C

Inquiry: What about this compound? COCCOc1ncnc2[nH]ccc12
Reply text: 137 to 139 °C

Inquiry: What about this compound? NC(=O)C(OC(=O)Nc1cccc(Cl)c1)(C(N)=O)c1ccccc1
Reply text: 196 to 198 °C

Inquiry: What about this compound? CC(C)(CO)NS(=O)(=O)c1cc(NC(=O)c2cnn3c(C(F)(F)F)cc(-c4ccc(C(F)(F)F)cc4)nc23)c(Cl)s1
Reply text: 223 °C

Inquiry: What about this compound? NC(=O)c1cccc(Oc2ccccc2)c1
Reply text: 127 to 128 °C

----------
measuredAttribute: melting point

Some compounds with recorded melting point:
Inquiry: Entry O=C(On1nnc2ccccc21)c1ccccc1 has what melting point?
Reply text: 75 to 78.5 °C

Inquiry: What about this compound? Brc1cc(Br)c(OC2C=CCC2)c(I)c1 (stereo not given)
Reply text: 57 to 58 °C

Inquiry: What about this compound? COC1(c2cccc(OCc3ccc(-n4ccnc4C)cc3)c2)CCOCC1
Reply text: 136 to 137 °C

Inquiry: What about this compound? CN1C(c2ccc3ccccc3c2)CC(=O)CC1c1ccc2ccccc2c1 (stereo not given)
Reply text: 209 to 212 °C

Okay, now this compound:
Inquiry: Entry CCN(CC)Cc1nc(-c2ncn3c2CN(C)C(=O)c2ccccc2-3)no1 has what melting point?
Reply text: 153 to 154 °C

----------
Attribute: melting point

Some compounds with recorded melting point:
Inquiry: Entry CCOC(=O)c1nnc(-c2cc3cccc(N(C)S(=O)(=O)c4cccs4)c3[nH]2)s1 has what melting point?
Reply text: 176 to 177 °C

Inquiry: What about this compound? Cc1nn(-c2ccc(Cl)cc2F)c(=O)[nH]1
Reply text: 115 °C

Inquiry: What about this compound? Cc1cc(=O)c(OCc2ccccc2)c(C=O)o1
Reply text: 78 to 81 °C

Inquiry: What about this compound? CC(C)(C)OC(=O)NCCNC(=O)Nc1ccccc1C(=O)NC1CCN(C(c2ccccc2)c2ccccc2)CC1
Reply text: 226 to 228 °C

Inquiry: What about this compound? Cc1c(C(=O)Nc2ccc(OCC(C)C)c(C#N)c2)cnn1-c1ccc(F)cc1
Reply text: 177 to 178 °C

Inquiry: What about this compound? CC(C)(C)OC(=O)N1CCC(Oc2ccc(-c3ccc(=O)[nH]n3)c(F)c2)CC1
Reply text: 117 to 119 °C

Inquiry: What about this compound? COCCOC(=O)C1=C(C)Nc2nccn2C1c1ccccc1C(F)(F)F (stereo unspecified)
Reply text: 181 to 182 °C

Inquiry: What about this compound? CCc1c(C(=O)C(N)=O)c2c(OCC(=O)OC)cc3c(c2n1Cc1ccccc1)CCCC3
Reply text: 51 to 53 °C

Inquiry: What about this compound? Cc1ccc(CNCCOc2cccc3[nH]c(=O)[nH]c23)cc1
Reply text: 162 to 163 °C

Inquiry: What about this compound? COc1cccc(N(CC(=O)OC(C)(C)C)C(=O)CCl)c1
Reply text: 110 °C

Next:
Inquiry: Entry O=C(Nc1ccc2ccccc2n1)c1ccc(COc2ccc3c(c2)CCC(CCN2CCCCC2)C3)cc1 (stereo unspecified) has what melting point?
Reply text: 135 to 138 °C

Inquiry: What about this compound? Cc1nn(-c2ccccn2)c2[nH]c3c(c(=O)c12)CCCC3
Reply text: 172 to 173 °C

Inquiry: What about this compound? CNC(=O)c1c(I)c(N)c(I)c(N(CCO)C(C)=O)c1I
Reply text: 197 °C

Inquiry: What about this compound? CN(c1c(Cl)ccc2cc(C(N)=S)[nH]c12)S(=O)(=O)c1cccs1
Reply text: 200 to 201 °C

Inquiry: What about this compound? CCCCCCCCCCCCCCCC(=O)NCCCC
Reply text: 74 to 76 °C

Inquiry: What about this compound? O=C(O)c1ccc(C(=O)N[C@@H](Cc2c[nH]c3ccccc23)C(=O)O)cc1
Reply text: 187 to 189 °C

Inquiry: What about this compound? CCC1(C)CC(NC(=O)c2ccccc2)C(C)C(C)(CC)N1OC(C)c1ccccc1 (stereo unspecified)
Reply text: 112 to 147 °C

Inquiry: What about this compound? CCCn1nc2c(N)nc3ccccc3c2c1CCNC(=O)Nc1ccc(F)c(F)c1
Reply text: 211 to 212 °C

Inquiry: What about this compound? Cc1cc(S)c(C)c(C)c1O
Reply text: 86 °C

Inquiry: What about this compound? C[C@@H](C(=O)c1ccccc1)[C@H](NC(=O)C(F)(F)F)C(=O)OC(C)(C)C
Reply text: 127 to 128 °C

Inquiry: What about this compound? O=C(NCc1ccc(Cl)cc1)c1cnc2ccc(I)cc2c1O
Reply text: 297 to 299 °C

Inquiry: What about this compound? COc1cc2c(cc1O)C1Cc3c(Cl)cc(OC)c(O)c3CN1CC2 (stereo unspecified)
Reply text: 136 to 138 °C

Inquiry: What about this compound? CCCCc1nc(Cl)c(COC)n1Cc1ccc(C(=O)O)cc1
Reply text: 126 to 128 °C

Inquiry: What about this compound? COc1cc2c(cc1OC)[C@@H](O)[C@H](CN1CCC3(CC1)C(=O)NCN3c1ccccc1)C2 (relative stereo)
Reply text: 189 to 190 °C
